- target: UniProt Q13822
- assay.remarks: ATX biochemical FRET assay with FS-3 substrate
- experimental.parameters: 1.0 μg/mL ATX, 2 μM FS-3, 2 hours at room temperature
# reported IC50; entries follow

query: // query IC50 value for entry C[C@H]1CC[C@@H](Oc2cccc3cc(CN4C5CCC4CC(C(=O)O)C5)ccc23)CC1 (stereo partly shown)
result: 0.5 to 5 µM

query: // query IC50 value for entry CC(C)[C@H]1CC[C@H](Oc2cccc3cc(CN4CC(C(=O)O)C4)ccc23)CC1
result: > 5 µM

query: // query IC50 value for entry CC(C)(C)[C@H]1CC[C@H](Oc2cccc3cc(CNC4CC(C(=O)O)C4)ccc23)CC1 (stereo partly shown)
result: 0.5 to 5 µM

query: // query IC50 value for entry CC(C)[C@H]1CC[C@H](Oc2cccc3cc(CN4CCC(C(=O)O)CC4)ccc23)CC1
result: 0.5 to 5 µM

query: // query IC50 value for entry CC[C@H]1CC[C@H](Oc2cccc3cc(CN4CCC(C(=O)O)CC4)ccc23)CC1
result: 0.5 to 5 µM
